systemUnderTest: human β2-adrenergic receptor (Homo sapiens, UniProt P07550)
Construct: expressed in transfected cells; host or cells: CHO cells
Sequence (P07550 whole entry): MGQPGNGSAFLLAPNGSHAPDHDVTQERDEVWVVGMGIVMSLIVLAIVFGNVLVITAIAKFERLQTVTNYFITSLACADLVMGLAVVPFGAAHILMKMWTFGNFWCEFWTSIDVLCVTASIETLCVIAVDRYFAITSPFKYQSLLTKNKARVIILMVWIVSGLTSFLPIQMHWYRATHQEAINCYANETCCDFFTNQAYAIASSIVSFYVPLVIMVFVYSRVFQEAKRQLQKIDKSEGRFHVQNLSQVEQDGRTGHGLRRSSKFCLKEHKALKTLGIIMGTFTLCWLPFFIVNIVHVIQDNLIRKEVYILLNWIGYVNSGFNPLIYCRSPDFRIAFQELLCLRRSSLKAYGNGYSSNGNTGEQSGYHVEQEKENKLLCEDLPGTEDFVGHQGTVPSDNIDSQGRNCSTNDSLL
methodDescription: cAMP accumulation (SPA) in CHO cells transfected with human β2 adrenergic receptor
Assay type: cell-based
appliedConditions: IA = % activity compound / % activity isoproterenol at 10^−5 M; CHO human β2 cells
measurementKind: beta-2 (IA) maximal response relative to isoproterenol

Below, 8 compounds whose answers are already recorded.
CCCCN(CC(=O)O)S(=O)(=O)c1ccc(N2CCC(NC[C@H](O)c3ccc(O)c(NS(C)(=O)=O)c3)CC2)cc1 [Example 20] | (0.3)
COc1ccc(N(Cc2ccccc2)S(=O)(=O)c2ccc(N3CCC(NCC(O)COc4cccc5[nH]c(=O)[nH]c45)CC3)cc2)cc1OC (centres unmarked) [Example 1] | (0)
CS(=O)(=O)Nc1cc([C@@H](O)CNC2CCN(c3ccc(S(=O)(=O)N4CC(=O)NC4=O)cc3)CC2)ccc1O [Example 50] | (0.35)
CS(=O)(=O)Nc1cc([C@@H](O)CNC2CCN(c3ccc(S(=O)(=O)N(CC(=O)O)Cc4cc(F)ccc4F)cc3)CC2)ccc1O [Example 63] | (0.15)
CCOC(=O)CN(Cc1cc(F)ccc1F)S(=O)(=O)c1ccc(N2CCC(NC[C@H](O)c3ccc(O)c(NS(C)(=O)=O)c3)CC2)cc1 [Example 61] | (0.2)
CN(CC(=O)O)S(=O)(=O)c1ccc(N2CCC(NC[C@H](O)c3ccc(O)c(NS(C)(=O)=O)c3)CC2)cc1 [Example 33] | (0.15)
CCOC(=O)CN(C)S(=O)(=O)c1ccc(N2CCC(NC[C@H](O)c3ccc(O)c(NS(C)(=O)=O)c3)CC2)cc1 [Example 25] | (0.37)
CC(C)OC(=O)C1CCCN1S(=O)(=O)c1ccc(N2CCC(NCC(O)c3ccc(O)c(NS(C)(=O)=O)c3)CC2)cc1 (centres unmarked) [Example 15] | (0.37)

input: Field request: beta-2 (IA) maximal response relative to isoproterenol | item: CS(=O)(=O)Nc1cc([C@@H](O)CNC2CCN(c3ccc(S(=O)(=O)N4CCCCC4)cc3)CC2)ccc1O [Example 42]
output: (0.35)
